assay: Tanguay_ZF_120hpf_ActivityScore_legacy: (Legacy) Oregon State University Tanguay Lab 120 Hour Post-fertilization zebrafish Assay Score for Activity (AID 2283742)
Active and inactive are the calls of the source. The calls were made as follows: active = hit-call score of the fitted dose curve at least 0.9, where 1 is the maximum; inconclusive = response in the unintended direction; inactive = score below 0.9.
// allowed return values: Y = active, N = inactive

CN(C)c1nc(=O)n(C2CCCCC2)c(=O)n1C; N
Oc1c(Cl)c(Cl)c(Cl)c(Cl)c1Cl; Y
COS(=O)(=O)OC; N
CC#Cc1cc(C)nc(Nc2ccccc2)n1; N

Which outcome was assigned to Cc1cc(-c2ccc(N)c(C)c2)ccc1N in this test?
N

Which outcome was assigned to C=CC(=O)NCNC(=O)C=C in this test?
N

Which outcome was assigned to CCC(C)(CC)c1cc(NC(=O)c2c(OC)cccc2OC)on1 in this test?
N

Which outcome was assigned to O=S(=O)(O)C(F)(F)C(F)(F)C(F)(F)C(F)(F)C(F)(F)C(F)(F)F in this test?
Y

Which outcome was assigned to CCCCCCCCOC(=O)c1ccccc1C(=O)OCCCCCCCC in this test?
N

Which outcome was assigned to ClC(Cl)=C(c1ccc(Cl)cc1)c1ccc(Cl)cc1 in this test?
N

Which outcome was assigned to CC(C)C(=O)OCC(C)(C)C(OC(=O)C(C)C)C(C)C (stereo not given) in this test?
Y
